Origin of measurements: patent US11472778B2

# Tested on: HCV replicon R155K variant in Huh7 cells
# Assay remarks: microbe, parasite or virus in culture
# Assay type: cell-based, Hepatitis C virus
# Measurement setup: Hepatitis C virus, Huh-7, read-out: Replicon EC50 (nM) R155K, Table 4
The reader will find reported EC50 values listed item by item below.
API: value field is a number in nM; no unit string.

CCc1nc2ccccc2nc1O[C@@H]1C[C@H]2C(=O)N[C@]3(C(=O)NS(=O)(=O)C4CC4)C[C@H]3/C=C\CCCCC[C@H](NC(=O)OC(C)(C)C)C(=O)N2C1 [Compound 18g]	1.81

Query: Test system HCV replicon R155K variant in Huh7 cells; read-out EC50; what value for COc1ccc2nc(C)c(O[C@@H]3C[C@H]4C(=O)N[C@]5(C(=O)NS(=O)(=O)C6CC6)C[C@H]5/C=C\CCCCC[C@H](NC(=O)OC5CCCC5)C(=O)N4C3)nc2c1 [Compound 22b] ?
Result: 0.89

Query: Short answer please: EC50, HCV replicon R155K variant in Huh7 cells, entry COc1ccc2nc(C(F)(F)F)c(O[C@@H]3C[C@H]4C(=O)N[C@]5(C(=O)NS(=O)(=O)C6(C)CC6)C[C@H]5/C=C\CCCCC[C@H](NC(=O)OC5CCCC5)C(=O)N4C3)nc2c1 [Compound 23d]
Result: 6.9

----------
# Assay system: GT3a NS3/4A protease (Hepatitis C virus genotype 3a)
# Construct: drug-resistant variant D168A, and GT3a NS3/4A protease; made in house; host or cells: Escherichia coli BL21(DE3)
# Sequence (Q81495 1033-1214): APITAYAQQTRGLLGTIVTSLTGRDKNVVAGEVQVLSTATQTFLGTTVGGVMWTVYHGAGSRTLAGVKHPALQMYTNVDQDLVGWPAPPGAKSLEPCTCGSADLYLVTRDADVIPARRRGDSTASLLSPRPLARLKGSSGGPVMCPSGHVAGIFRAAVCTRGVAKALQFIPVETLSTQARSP
# Assay remarks: biochemical
# Lookup of reported Ki keyed by entry
A complete answer gives the number followed by the unit.

Query: Look up Ki: COc1ccc2nc(C(F)(F)F)c(O[C@@H]3C[C@H]4C(=O)N[C@]5(C(=O)NS(=O)(=O)C6CC6)C[C@H]5/C=C\CCCCC[C@H](NC(=O)OC(C)(C)C)C(=O)N4C3)nc2c1 [Compound 18d]
Result: 0.344 µM

Query: May I ask what Ki has been recorded for COc1ccc2nc(Cl)c(O[C@@H]3C[C@H]4C(=O)N[C@]5(C(=O)NS(=O)(=O)C6CC6)C[C@H]5/C=C\CCCCC[C@H](NC(=O)OC5CCCC5)C(=O)N4C3)nc2c1 [Compound 22c] ?
Result: 0.0856 µM

Query: Which measured Ki value corresponds to COc1ccc2nc(C)c(O[C@@H]3C[C@H]4C(=O)N[C@]5(C(=O)NS(=O)(=O)C6(C)CC6)C[C@H]5/C=C\CCCCC[C@H](NC(=O)OC5CCCC5)C(=O)N4C3)nc2c1 [Compound 23b] ?
Result: 0.121 µM

Query: # lookup: Ki of COc1ccc2nc(C(F)(F)F)c(O[C@@H]3C[C@H]4C(=O)N[C@]5(C(=O)NS(=O)(=O)C6(C)CC6)C[C@H]5/C=C\CCCCC[C@H](NC(=O)OC(C)(C)C)C(=O)N4C3)nc2c1 [Compound 19d]
Result: 0.231 µM

Query: Please report the recorded Ki for CCc1nc2ccc(OC)cc2nc1O[C@@H]1C[C@H]2C(=O)N[C@]3(C(=O)NS(=O)(=O)C4CC4)C[C@H]3/C=C\CCCCC[C@H](NC(=O)OC(C)(C)C)C(=O)N2C1 [Compound 2] .
Result: 0.204 µM

Query: What does the data say about its Ki? Entry: CCc1nc2ccc(OC)cc2nc1O[C@@H]1C[C@H]2C(=O)N[C@]3(C(=O)NS(=O)(=O)C4CC4)C[C@H]3/C=C\CCCCC[C@H](NC(=O)OC3CCCC3)C(=O)N2C1 [Compound 22a]
Result: 0.211 µM

Query: Can you share its Ki? I mean this compound: COc1ccc2nc(C)c(O[C@@H]3C[C@H]4C(=O)N[C@]5(C(=O)NS(=O)(=O)C6(C)CC6)C[C@H]5/C=C\CCCCC[C@H](NC(=O)OC(C)(C)C)C(=O)N4C3)nc2c1 [Compound 19b]
Result: 0.119 µM

Query: Which value of Ki has been reported for COc1ccc2nc(C(F)(F)F)c(O[C@@H]3C[C@H]4C(=O)N[C@]5(C(=O)NS(=O)(=O)C6(C)CC6)C[C@H]5/C=C\CCCCC[C@H](NC(=O)OC5CCCC5)C(=O)N4C3)nc2c1 [Compound 23d] in the records?
Result: 0.433 µM

Query: Which value of Ki has been reported for COc1ccc2nc(C)c(O[C@@H]3C[C@H]4C(=O)N[C@]5(C(=O)NS(=O)(=O)C6CC6)C[C@H]5/C=C\CCCCC[C@H](NC(=O)OC5CCCC5)C(=O)N4C3)nc2c1 [Compound 22b] in the records?
Result: 0.147 µM

Query: Give its Ki value. Item: CCc1nc2ccc(OC)cc2nc1O[C@@H]1C[C@H]2C(=O)N[C@]3(C(=O)NS(=O)(=O)C4(C)CC4)C[C@H]3/C=C\CCCCC[C@H](NC(=O)OC(C)(C)C)C(=O)N2C1 [Compound 19a]
Result: 0.171 µM
